- Tested on: galium (catchweed bedstraw, Galium aparine)
- Assay explanation: Test C postemergence, galium
- Type: in vivo
- Condition context: 31 g ai/ha Postemergence; visual injury, 0 to 100 scale (0 no effect, 100 complete control)
Attribute measured: Galium plant response rating

Fill blank: measured Galium plant response rating of the molecule Cc1c(N2CCC(OC3CC3)C2=O)cc(N(COC(=O)C(C)(C)C)S(=O)(=O)C(F)(F)F)c(C)c1C (stereo not drawn) is ____. 80

Fill blank: measured Galium plant response rating of the molecule `C=CCO/N=C1\CCN(c2cc(NS(=O)(=O)C(F)(F)F)c(C)cc2C)C1=O` is ____. 80

Fill blank: measured Galium plant response rating of the molecule Cc1cc(C)c(N2CCC(OC3CC3)C2=O)cc1NS(=O)(=O)C(F)(F)F (single isomer, unassigned) [Compound 30] is ____. 80

###

- System: soybean (Glycine max)
- Assay explanation: Test C postemergence, soybean
- Type: in vivo
- Condition context: 125 g ai/ha Postemergence; 0 is no effect, 100 is complete control
Measured Plant response rating (0 to 100 scale), Soybean of individual entries
The reply should be a number, written without any unit.

Cc1cc(C)c(N2CC/C(=N\O)C2=O)cc1NS(=O)(=O)C(F)(F)F [Compound 10]    80
CCCC(=O)OCN(c1cc(N2CCC(OC3CC3)C2=O)c(C)cc1C)S(=O)(=O)C(F)(F)F (centres unmarked) [Compound 20]    70
CCO/N=C1\CCN(c2cc(NS(=O)(=O)C(F)(F)F)c(C)cc2C)C1=O [Compound 12]    100
Cc1cc(C)c(N(C(=O)OCC(C)C)S(=O)(=O)C(F)(F)F)cc1N1CCC(OC2CC2)C1=O (centres unmarked) [Compound 21]    60

Please examine the following record next.
Fill blank: measured Plant response rating (0 to 100 scale), Soybean of the molecule CC(=O)N(c1cc(N2CCC(OC3CC3)C2=O)c(C)cc1C)S(=O)(=O)C(F)(F)F (centres unmarked) [Compound 17] is ____. 80

###

- Test system: foxtail, giant (giant foxtail, Setaria faberi)
- Assay explanation: Test C preemergence, giant foxtail
- Assay type: in vivo
- Condition context: 125 g ai/ha Preemergence; 0 is no effect, 100 is complete control
Measured Plant response rating (0 to 100 scale), Foxtail, Giant of individual entries
The reply should be a number, written without any unit.

Reference set (4 entries):
Cc1c(N2CCC(OC3CCC3)C2=O)cc(N(COC(=O)C(C)(C)C)S(=O)(=O)C(F)(F)F)c(C)c1F (centres unmarked) [Compound 28]    100
Cc1cc(C)c(N2CC/C(=N\O)C2=O)cc1NS(=O)(=O)C(F)(F)F [Compound 10]    100
Cc1c(N2CCC(OC3CCC3)C2=O)cc(N(C(=O)OCC(C)C)S(=O)(=O)C(F)(F)F)c(C)c1C (centres unmarked) [Compound 48]    100
CC(=O)N(c1cc(N2CCC(OC3CC3)C2=O)c(C)cc1C)S(=O)(=O)C(F)(F)F (centres unmarked) [Compound 17]    100

Please examine the following record next.
Fill blank: measured Plant response rating (0 to 100 scale), Foxtail, Giant of the molecule Cc1cc(C)c(N(COC(=O)C(C)(C)C)S(=O)(=O)C(F)(F)F)cc1N1CCC(OCC2CC(F)(F)C2)C1=O (centres unmarked) [Compound 55] is ____. 10
